Biological target: hPPARß/δ LBD (Homo sapiens, UniProt Q03181)
Construct: cDNA (amino acids 171–441) inserted into pET28a vector; His-tag; made in house; host or cells: Escherichia coli BL21(DE3)
Sequence (Q03181 171-441): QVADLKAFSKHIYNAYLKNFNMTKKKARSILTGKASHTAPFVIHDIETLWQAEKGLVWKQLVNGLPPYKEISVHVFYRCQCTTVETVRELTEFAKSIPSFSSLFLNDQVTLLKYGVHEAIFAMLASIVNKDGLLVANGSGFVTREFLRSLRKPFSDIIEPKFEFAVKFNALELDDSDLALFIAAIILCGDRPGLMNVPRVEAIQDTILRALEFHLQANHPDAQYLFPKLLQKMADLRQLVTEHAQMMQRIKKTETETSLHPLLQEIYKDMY
Test: ANS fluorescence quenching
Assay type: binding
Settings: 2 μM hPPARß/δ LBD, 20 μM ANS; read-out: apparent dissociation constant (Kdapp)
measured.quantity: pKd
One number for each entry, as −log10 of the molar value.

Consider CCCc1c(OCCCOc2ccc(OCC(=O)O)cc2)ccc(C(C)=O)c1O [L-165,041] . Its measured pKd is 5.96

Reference source for all entries: paper PMC5924986
